Study System: human CB1 receptor (hCB1) (Homo sapiens, UniProt P21554)
Sequence (P21554 whole entry): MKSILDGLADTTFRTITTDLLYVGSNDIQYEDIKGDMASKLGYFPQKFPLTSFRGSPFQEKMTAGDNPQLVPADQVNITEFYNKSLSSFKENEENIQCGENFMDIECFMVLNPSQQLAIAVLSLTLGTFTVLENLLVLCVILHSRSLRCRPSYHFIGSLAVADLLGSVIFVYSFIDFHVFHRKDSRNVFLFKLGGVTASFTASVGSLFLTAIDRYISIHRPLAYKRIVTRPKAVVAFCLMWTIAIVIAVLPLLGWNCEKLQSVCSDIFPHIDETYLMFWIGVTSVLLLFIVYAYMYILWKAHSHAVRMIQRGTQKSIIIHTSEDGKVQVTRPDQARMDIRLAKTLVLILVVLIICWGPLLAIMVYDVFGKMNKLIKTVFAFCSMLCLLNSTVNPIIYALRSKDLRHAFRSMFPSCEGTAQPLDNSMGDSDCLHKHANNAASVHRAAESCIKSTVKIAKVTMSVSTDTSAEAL
Assay Overview: cAMP assay (LANCE TR-FRET) in CHO-K1 cells stably expressing hCB1
Measured EC50 of individual entries
Measure: EC50

Compound	Measure	Measured Result
CNC(=O)[C@@H](NC(=O)c1nc(-c2cc(F)ccc2F)n2c1CCCCC2)C(C)(C)C	EC50	0.1 to 10 nM
CNC(=O)[C@@H](NC(=O)c1nc(-c2ccc(F)c(F)c2)n2c1COCCC2)C(C)(C)C	EC50	10 to 100 nM
CC(C)(C)[C@H](NC(=O)c1nc(-c2cc(F)ccc2F)n2c1CCCCC2)C(=O)N1CCC1	EC50	0.1 to 10 nM
CNC(=O)[C@@H](NC(=O)c1nc(-c2ccc(F)c(F)c2)n2c1CCOCC2)C(C)(C)C	EC50	10 to 100 nM
O=C(N[C@@H]1c2ccccc2C[C@H]1O)c1nc(-c2ccc(F)c(F)c2)n2c1CCCCC2	EC50	10 to 100 nM
CCS(=O)(=O)N1CCc2c(C(=O)N[C@H](C(=O)NC)C(C)(C)C)nc(-c3ccccc3)n2CC1	EC50	> 10000 nM
COC(=O)[C@@H](NC(=O)c1nc(-c2ccccc2)n2c1CCCCC2)C(C)(C)C	EC50	0.1 to 10 nM
CNC(=O)[C@@H](NC(=O)c1nc(-c2ccccc2)n2c1CCN(C(C)=O)CC2)C(C)(C)C	EC50	> 10000 nM
O=C(N[C@H]1c2ccccc2C[C@H]1O)c1nc(-c2ccc(F)c(F)c2)n2c1CCCCC2	EC50	10 to 100 nM
CNC(=O)[C@@H](NC(=O)c1nc(-c2ccccc2)n2c1CCN(CC1CC1)CC2)C(C)(C)C	EC50	> 10000 nM
CNC(=O)[C@@H](NC(=O)c1nc(-c2ccc(Cl)cc2F)n2c1COCCC2)C(C)(C)C	EC50	0.1 to 10 nM
CNC(=O)[C@@H](NC(=O)c1nc(-c2ccc(F)c(F)c2)n2c1CCCCC2)C(C)(C)C	EC50	0.1 to 10 nM
CNC(=O)[C@@H](NC(=O)c1nc(-c2cc(F)ccc2F)n2c1COCCC2)C(C)(C)C	EC50	0.1 to 10 nM
O=C(N[C@@H]1c2ccccc2C[C@@H]1O)c1nc(-c2ccc(F)c(F)c2)n2c1CCCCC2	EC50	10 to 100 nM
CC(C)(C)[C@H](NC(=O)c1nc(-c2ccccc2)n2c1CCCCC2)C(=O)NCCF	EC50	10 to 100 nM
CNC(=O)[C@@H](NC(=O)c1nc(-c2ccccc2)n2c1CCCCC2)C(C)(C)C	EC50	10 to 100 nM
CC[C@H](C)[C@H](NC(=O)c1nc(-c2ccc(F)c(F)c2)n2c1CCCCC2)C(N)=O	EC50	0.1 to 10 nM
CCN1Cc2c(C(=O)N[C@H](C(=O)NC)C(C)(C)C)nc(-c3ccc(F)c(F)c3)n2CC(C)C1 (mixture of isomers)	EC50	10 to 100 nM

The reported measurements were obtained from patent US8835422B2.
